targetEntity: Prolyl endopeptidase FAP (Homo sapiens, UniProt Q12884)
Sequence (Q12884 whole entry): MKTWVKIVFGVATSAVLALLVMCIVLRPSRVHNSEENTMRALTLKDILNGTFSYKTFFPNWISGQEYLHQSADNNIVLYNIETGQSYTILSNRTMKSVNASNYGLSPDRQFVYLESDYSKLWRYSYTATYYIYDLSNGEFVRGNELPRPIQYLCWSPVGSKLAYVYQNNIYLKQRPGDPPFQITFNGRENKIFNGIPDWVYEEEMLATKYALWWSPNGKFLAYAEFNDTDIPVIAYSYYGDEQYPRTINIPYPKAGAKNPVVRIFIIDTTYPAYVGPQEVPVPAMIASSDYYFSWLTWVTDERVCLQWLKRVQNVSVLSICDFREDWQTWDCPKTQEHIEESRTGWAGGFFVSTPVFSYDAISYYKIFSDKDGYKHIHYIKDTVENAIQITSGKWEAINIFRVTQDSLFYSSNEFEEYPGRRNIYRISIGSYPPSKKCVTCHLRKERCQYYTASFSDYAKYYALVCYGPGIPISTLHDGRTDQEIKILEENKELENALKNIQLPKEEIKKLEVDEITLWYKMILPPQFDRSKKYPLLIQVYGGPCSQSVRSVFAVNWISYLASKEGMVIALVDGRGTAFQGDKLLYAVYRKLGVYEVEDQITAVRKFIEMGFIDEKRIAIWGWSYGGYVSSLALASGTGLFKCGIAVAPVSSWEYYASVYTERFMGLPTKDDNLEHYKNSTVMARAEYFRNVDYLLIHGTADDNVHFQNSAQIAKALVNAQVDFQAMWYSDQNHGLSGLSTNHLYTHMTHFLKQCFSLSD
assayInfo: hFAP Binding Assay
appliedConditions: read-out: kon (M-1-s-1)
measuredAttribute: kon (M⁻¹ s⁻¹)
State the answer as a number, implicitly in M⁻¹ s⁻¹.

| compound | recordedValue |
| --- | --- |
| N#C[C@@H]1CSCN1C(=O)CNC(=O)c1ccnc2ccc(N3C[C@H](O)C(F)(F)C3)cc12 [US20230312550, Example 224] | 3e+06 |
| CC1(C)CCN(c2ccc3nccc(C(=O)NCC(=O)N4CSC[C@H]4C#N)c3c2)C1=O [US20230312550, Example 12] | 1.9e+06 |

Specify measured kon for COc1ccc(-c2ccc3nccc(C(=O)NCC(=O)N4CSC[C@H]4C#N)c3c2)cn1 [US20230312550, Example 178] . 3.1e+06

Specify measured kon for N#C[C@@H]1CSCN1C(=O)CNC(=O)c1ccnc2ccc(N3CCC[C@H]3C(F)(F)F)cc12 [US20230312550, Example 56] . 540000

Specify measured kon for CC1(C)COC12CN(c1ccc3nccc(C(=O)NCC(=O)N4CSC[C@H]4C#N)c3c1)C2 [US20230312550, Example 18] . 1.4e+06

Specify measured kon for CC1(CS(C)(=O)=O)CN(c2ccc3nccc(C(=O)NCC(=O)N4CSC[C@H]4C#N)c3c2)C1 [US20230312550, Example 188] . 2.6e+06

Specify measured kon for N#C[C@@H]1CSCN1C(=O)CNC(=O)c1ccnc2ccc(-n3ccc4c3CCCC4)cc12 [US20230312550, Example 219] . 2.4e+06

Specify measured kon for N#C[C@@H]1CSCN1C(=O)CNC(=O)c1ccnc2ccc(N3CCOC(F)(F)C3)cc12 [US20230312550, Example 4] . 1.2e+06

Specify measured kon for CO[C@H]1CCN(c2ccc3nccc(C(=O)NCC(=O)N4CSC[C@H]4C#N)c3c2)C1 [US20230312550, Example 207] . 4.6e+06

Specify measured kon for Cc1ccn(-c2ccc3nccc(C(=O)NCC(=O)N4CSC[C@H]4C#N)c3c2)c1 [US20230312550, Example 121] . 1.1e+06

Specify measured kon for N#C[C@@H]1CSCN1C(=O)CNC(=O)c1ccnc2ccc(N3CC(CC(F)(F)F)C3)cc12 [US20230312550, Example 158] . 3.1e+06

Specify measured kon for N#C[C@@H]1CSCN1C(=O)CNC(=O)c1ccnc2ccc(N3CC(CCC(F)(F)F)C3)cc12 [US20230312550, Example 142] . 1.8e+06

Specify measured kon for C[C@H]1CCCN1c1ccc2nccc(C(=O)NCC(=O)N3CSC[C@H]3C#N)c2c1 [US20230312550, Example 65] . 6.7e+06

Specify measured kon for CO[C@@H]1CCN(c2ccc3nccc(C(=O)NCC(=O)N4CSC[C@H]4C#N)c3c2)C1 [US20230312550, Example 161] . 1.4e+07

----------
targetEntity: UniProt Q12884
assayInfo: hFAP Binding Assay
measuredAttribute: koff (s⁻¹)
State the answer as a number, implicitly in s⁻¹.

The examples below pair each entry with its known result.
| molecule | unit | koff |
| --- | --- | --- |
| CC1(O)CN(c2ccc3nccc(C(=O)NCC(=O)N4CSC[C@H]4C#N)c3c2)C1 | s⁻¹ | 6.3e-05 |
| N#C[C@@H]1CSCN1C(=O)CNC(=O)c1ccnc2ccc(N3C[C@@H]4CC[C@H]3C4)cc12 (mixture of isomers) | s⁻¹ | 9.8e-05 |
| C[C@@H]1CN(c2ccc3nccc(C(=O)NCC(=O)N4CSC[C@H]4C#N)c3c2)CCCO1 | s⁻¹ | 0.00015 |
| N#C[C@@H]1CSCN1C(=O)CNC(=O)c1ccnc2ccc(N3C[C@H]4CCC[C@@H](C3)O4)cc12 | s⁻¹ | 6.8e-05 |
| CC1(CC(F)(F)F)CN(c2ccc3nccc(C(=O)NCC(=O)N4CSC[C@H]4C#N)c3c2)C1 | s⁻¹ | 0.00014 |

Specify measured koff for N#C[C@@H]1CSCN1C(=O)CNC(=O)c1ccnc2ccc(N3CCOC(F)(F)C3)cc12 . 9.4e-05

Specify measured koff for N#C[C@@H]1CSCN1C(=O)CNC(=O)c1ccnc2ccc(N3C4CCC3CC4)cc12 . 4.2e-05

Specify measured koff for N#C[C@@H]1CSCN1C(=O)CNC(=O)c1ccnc2ccc(N3CCOCC34CCC4)cc12 . 6.1e-05
